Data provenance: the domain aggregation screens of Martell et al. (2025)

experiment: soluble fraction after stress (log2 fold change); higher = more stays soluble; pooled small domains, quantitative proteomics; settings: stress: pH 4
REPORTED_ENDPOINT: soluble fraction (log2)
Lab note: write the figure by itself, no unit.

Worked examples follow.
HMEPLKLGDATGDGKINLQDVLEMQKHMAGILVLKGKFFTAADVNGNGKIELVDVLSVQKYLAGVTAEV : -0.0932
HMRSHLSANLQRLRHIAGLTQKDLALAANLPRATLASLEQGEANPRLDTLLAVASALQVGLDELIAAP : -1.1
HMRPSGEAVNAAYRLLKGANPSGNEGDLIQRAQEVAAILPKLNRSSAAAFAKDAKANGLTQAETIALWKGS : 0.163

Switching to the query record.
Q: Quick one: give measured soluble fraction (log2) for HMAIKTGAVTGHGVKVRKGPSTNEKAIHDVLYGSRLQILEEKNGFLKAKFEDGTTGWISKQFVTTTDKNLL
A: -0.0244
